Where do the numbers come from? From paper PMC12667295.

Kindly state Kp uu for each of the entries shown.
Test: in vivo
Settings: SD, rat, iv, 1 mg/kg
Answers are plain numbers.

Guide cases for Kp uu, answers given:
Quick one: Kp uu for CCOc1ccc(NC(C)=O)cc1 [Phenacetin] ?
0.768

Please give the measured Kp uu for this molecule: Cc1cc(=O)n(-c2ccccc2)n1C [Antipyrine]
0.72

Could you now consider this next molecule?
I would be grateful if you could share the reported Kp uu for CN/C(=N/CCSCc1nc[nH]c1C)NC#N [Cimetidine] .
0.008

---

Experiment: in vivo
Conditions: SD, rat, iv, 1 mg/kg, Kp,uu,Brian
Field: Kp. Provide a value for each of the molecules that follow.

Consider the following illustrative entries.
For the molecule shown here, CCN(CC)CCNC(=O)c1c(C)[nH]c(/C=C2\C(=O)Nc3ccc(F)cc32)c1C , give the reported Kp.
0.563

Which Kp is reported for this molecule? COc1cccc2c1C(=O)c1c(O)c3c(c(O)c1C2=O)C[C@@](O)(C(=O)CO)C[C@@H]3O[C@H]1C[C@H](N)[C@H](O)[C@H](C)O1
0.012

New cases:
Quick one: Kp for COc1cc([C@@H]2c3cc4c(cc3[C@@H](O[C@@H]3O[C@@H]5CO[C@@H](C)O[C@H]5[C@H](O)[C@H]3O)[C@H]3COC(=O)[C@H]23)OCO4)cc(OC)c1O [Etoposide] ?
0.008

---

Test: in vitro
Conditions: rat, brain homogenate
Procedure: Stocks (10 mM) of test compounds were diluted to 5 μM with plasma or tissue homogenate and dialyzed at 37 °C for 6 hours in a shaking incubator. […] The fu, plasma was calculated using Equation 1:(1) fu,plasma=Concbuffer chamber/Concsample chamber Rat fraction unbound in brain (fu, brain) was determined as the ratio of concentration in buffer to that in brain. […]
Define the label as fulfilled when fraction unbound at 6 h, 5 µM is strictly less than 0.4 and as not fulfilled in all remaining cases.

A selection of reference data follows.
Regarding CN/C(=N/CCSCc1nc[nH]c1C)NC#N , kindly confirm whether its fraction unbound at 6 h, 5 µM is beneath 0.4.
not fulfilled

Hello, is fraction unbound at 6 h, 5 µM of the following compound strictly smaller than 0.4? COc1cc([C@@H]2c3cc4c(cc3[C@@H](O[C@@H]3O[C@@H]5CO[C@@H](C)O[C@H]5[C@H](O)[C@H]3O)[C@H]3COC(=O)[C@H]23)OCO4)cc(OC)c1O [Etoposide]
fulfilled

Hi there! Is fraction unbound at 6 h, 5 µM for COc1ccc2[nH]c([S+]([O-])Cc3ncc(C)c(OC)c3C)nc2c1 (stereo not drawn) below 0.4, do you know?
fulfilled

Others:
Identify whether the compound Cc1cc(=O)n(-c2ccccc2)n1C [Antipyrine] records fraction unbound at 6 h, 5 µM below 0.4.
not fulfilled

Check if fraction unbound at 6 h, 5 µM falls below 0.4 for CC[C@]1(O)C[C@@H]2CN(CCc3c([nH]c4ccccc34)[C@@](C(=O)OC)(c3cc4c(cc3OC)N(C)[C@H]3[C@@](O)(C(=O)OC)[C@H](OC(C)=O)[C@]5(CC)C=CCN6CC[C@]43[C@@H]65)C2)C1 .
fulfilled

---

Test system: P-gp (human MDR1)
Assay: Bidirectional transport across LLC-PK1-MDR1 monolayer stably expressing human MDR1 (P-gp) (Transwell);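 note: 2 h incubation at 37 °C, receiver HBSS with 10 mM Hepes plus 1% BSA, LC-MS/MS of donor and receiver, recovery as receiver plus donor amount over initial donor amount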
Conditions: pig, LLC-PK1, pH 7.4
Consider the following molecules; for each one, report its Papp A→B at 2 h, 2 µM.
Answers are plain numbers, in ×10⁻⁶ cm/s.

Guide cases for Papp A→B at 2 h, 2 µM, answers given:
# get_value(readout='Papp A→B at 2 h, 2 µM', item= CC(NC(C)(C)C)C(=O)c1cccc(Cl)c1 (stereo not drawn) )
26.6

Fill in the blank: the reported Papp A→B at 2 h, 2 µM of Cc1ncc2n1-c1ccc(Cl)cc1C(c1ccccc1F)=NC2 is ____.
29.5

Requested read-out: Papp A→B at 2 h, 2 µM. Entry: COc1ccc2[nH]cc(CCNC(C)=O)c2c1
20.8

Look up Papp A→B at 2 h, 2 µM for the entries below, preserving their order.
1. COc1ccc2c(c1)[C@]13CCCC[C@@H]1[C@H](C2)N(C)CC3
2. COc1ccc2cc1Oc1ccc(cc1)C[C@H]1c3cc(c(OC)cc3CCN1C)Oc1c(OC)c(OC)cc3c1[C@H](C2)N(C)CC3
3. CC(C)NCC(O)COc1cccc2ccccc12 (stereo not drawn)
4. C=C[C@H]1C[N@@]2CC[C@H]1C[C@@H]2[C@@H](O)c1ccnc2ccc(OC)cc12
5. C[C@H]1O[C@@H](O[C@H]2[C@@H](O)C[C@H](O[C@H]3[C@@H](O)C[C@H](O[C@H]4CC[C@@]5(C)[C@H](CC[C@@H]6[C@@H]5C[C@@H](O)[C@]5(C)[C@@H](C7=CC(=O)OC7)CC[C@]65O)C4)O[C@@H]3C)O[C@@H]2C)C[C@H](O)[C@@H]1O
6. COc1cc([C@@H]2c3cc4c(cc3[C@@H](O[C@@H]3O[C@@H]5CO[C@@H](C)O[C@H]5[C@H](O)[C@H]3O)[C@H]3COC(=O)[C@H]23)OCO4)cc(OC)c1O [Etoposide]
7. CCOc1ccc(NC(C)=O)cc1

[18.8, 1.55, 16.8, 2.48, 1.15, 0.75, 36.6]

For the 6 molecules below, give their Papp A→B at 2 h, 2 µM values.
1. CC[C@]1(O)C[C@@H]2CN(CCc3c([nH]c4ccccc34)[C@@](C(=O)OC)(c3cc4c(cc3OC)N(C)[C@H]3[C@@](O)(C(=O)OC)[C@H](OC(C)=O)[C@]5(CC)C=CCN6CC[C@]43[C@@H]65)C2)C1
2. Cc1cc(=O)n(-c2ccccc2)n1C [Antipyrine]
3. COc1cccc2c1C(=O)c1c(O)c3c(c(O)c1C2=O)C[C@@](O)(C(=O)CO)C[C@@H]3O[C@H]1C[C@H](N)[C@H](O)[C@H](C)O1
4. COCCOC(=O)C1=C(C)NC(C)=C(C(=O)OC(C)C)C1c1cccc([N+](=O)[O-])c1 (stereo not drawn)
5. COc1cccc(C2(O)CCCCC2CN(C)C)c1 (stereo not drawn)
6. COc1ccc2c(c1)c(CC(=O)O)c(C)n2C(=O)c1ccc(Cl)cc1

1. 2.84
2. 30.9
3. 0.95
4. 32.2
5. 26.3
6. 14.9

For every item below, please supply its Papp A→B at 2 h, 2 µM.
1. CCC1(c2cnc[nH]2)Cc2ccccc2C1
2. NC(=O)C[S+]([O-])C(c1ccccc1)c1ccccc1 (stereo not drawn)

1. 33.7
2. 22.7
